Target: human orexin receptor 1 (Homo sapiens (Human))
Sequence (O43613 whole entry): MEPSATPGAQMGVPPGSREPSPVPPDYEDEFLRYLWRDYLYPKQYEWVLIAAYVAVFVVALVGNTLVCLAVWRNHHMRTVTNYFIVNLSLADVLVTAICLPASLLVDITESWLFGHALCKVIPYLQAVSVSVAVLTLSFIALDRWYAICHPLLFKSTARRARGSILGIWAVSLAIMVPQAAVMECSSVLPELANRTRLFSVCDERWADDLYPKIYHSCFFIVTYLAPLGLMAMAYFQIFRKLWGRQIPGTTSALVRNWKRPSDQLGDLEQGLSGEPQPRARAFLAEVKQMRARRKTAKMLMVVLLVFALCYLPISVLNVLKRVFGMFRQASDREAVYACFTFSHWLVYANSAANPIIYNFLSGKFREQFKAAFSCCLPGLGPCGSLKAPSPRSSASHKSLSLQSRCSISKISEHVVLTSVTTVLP
Test: Orexin antagonist activity, intracellular calcium FLIPR assay, RBL-2H3 cells expressing human orexin receptor 1
Details: RBL-2H3 cells stably expressing human orexin receptor 1; orexin-A at approx. 80% maximal response; compound added 15 minutes before; read-out: Human Orexin1R IC50
pIC50: −log10 of the molar value.
Kindly return fulfilled if reported pIC50 is no lower than 7; return not fulfilled if it is lower.

Example entries begin here.
| molecule | assayed-system | assigned-class |
| --- | --- | --- |
| O=C(N[C@H]1CCC[C@@H]1Nc1cnc(C(F)(F)F)cn1)c1ccccc1-n1ccnn1 [Example 35] | human orexin receptor 1 (Homo sapiens (Human)) | not fulfilled |
| O=C(N[C@H]1CCC[C@@H]1Nc1ccc(OC(F)(F)F)cn1)c1ccccc1-n1nccn1 [Example 115] | human orexin receptor 1 (Homo sapiens (Human)) | not fulfilled |

## Task # bool: pIC50 of COc1cccc(F)c1C(=O)N[C@H]1CCC[C@@H]1Nc1ccc(C(F)(F)F)cn1 [Example 71] >= 7
## Result not fulfilled

## Task Does pIC50 meet or surpass 7 for O=C(N[C@H]1CCC[C@@H]1Nc1ccc(C(F)(F)F)cn1)c1c(F)cccc1F [Example 72] ?
## Result not fulfilled

## Task Quick check, pIC50 >= 7? O=C(N[C@H]1CCC[C@@H]1Nc1ccc(C(F)(F)F)cn1)c1cc(F)ccc1-n1nccn1 [Example 10]
## Result fulfilled

## Task State whether the measured pIC50 reaches 7, counting equality as reaching it, for O=C(N[C@H]1CCC[C@@H]1Nc1cnc(C(F)(F)F)cn1)c1cc(Cl)ccc1-n1ccnn1 [Example 55]
## Result not fulfilled

## Task In plain terms: is recorded pIC50 at least 7 for O=C(N[C@H]1CCC[C@@H]1Nc1cnc(C(F)(F)F)cn1)c1ncccc1OC(F)(F)F [Example 58] ?
## Result not fulfilled

## Task Please tell me: is the molecule O=C(N[C@H]1CCC[C@@H]1Nc1cnc(C(F)(F)F)cn1)c1ncccc1Br [Example 28] at or over 7 in terms of pIC50?
## Result not fulfilled

## Task Reported pIC50 reaches at least 7 for O=C(N[C@H]1CCC[C@@H]1Nc1ncc(C(F)(F)F)cc1Br)c1ccccc1-n1nccn1 [Example 107] ?
## Result fulfilled

## Task Determine whether this molecule has pIC50 no lower than 7: CCc1nc(C(F)(F)F)cnc1N[C@H]1CCC[C@@H]1NC(=O)c1cc(F)ccc1-c1ncccn1 [Example 158]
## Result fulfilled

## Task Exam item: decide whether the reported pIC50 for COc1cccc(OC)c1C(=O)N[C@H]1CCC[C@@H]1Oc1cc(C(F)(F)F)ccn1 [Example 21] is at least 7.
## Result not fulfilled

## Task Please check the record O=C(N[C@H]1CCC[C@@H]1Nc1ncc(C(F)(F)F)cc1F)c1cc(F)ccc1-c1ncccn1 [Example 139] and state if its pIC50 is at or above 7.
## Result fulfilled

## Task In plain terms: is recorded pIC50 at least 7 for O=C(N[C@H]1CCC[C@@H]1Nc1ncc(C(F)(F)F)nc1C1CC1)c1ncccc1-c1ncccn1 [Example 143] ?
## Result fulfilled

## Task Does CC(C)c1nc(C(F)(F)F)cnc1N[C@H]1CCC[C@@H]1NC(=O)c1ccccc1-n1nccn1 [Example 110] have a reported pIC50 of at least 7?
## Result fulfilled

## Task Tell me whether pIC50 is at least 7 here: O=C(N[C@H]1CCC[C@@H]1Nc1cnc(C(F)(F)F)cn1)c1c(-n2nccn2)ccc(F)c1F [Example 56]
## Result not fulfilled
